In this section we review reported half-life values for a set of compounds.
- Method: Half life in C57BL/6 mouse at 3 mg/kg, po measured up to 24 hrs
- Assay type: ADME, organism-based
- Conditions Used: in vivo
// return numeric value only (unit: h, not printed)

{"Smiles Notation": "NS(=O)(=O)NCCNc1nonc1C(=NO)Nc1ccc(F)c(Br)c1", "half-life / h": 2.41}

Moving on to another compound below.
The value of half-life measured for the compound `NS(=O)(=O)N1CCC(C(=O)/C(=N/O)Nc2ccc(F)c(Br)c2)CC1` turned out to be 1.21

====

In this section we review reported half-life values for a set of molecules.
- Method: Half life in human liver microsomes
- Assay type: ADME, Microsome
// return numeric value only (unit: h, not printed)

{"Smiles Notation": "NS(=O)(=O)NCCNc1nonc1C(=NO)Nc1ccc(F)c(Br)c1", "half-life [h]": 4.88}

The value of half-life measured for the molecule `NS(=O)(=O)N1CCC(C(=O)/C(=N/O)Nc2ccc(F)c(Br)c2)CC1` turned out to be 5.81
